Target entity: S1P1 receptor (S1P1 expressing RH7777 membranes) (Homo sapiens)
Construct: expressed in transfected cells; host or cells: RH7777 cells (membranes)
Experimental details: S1P1 GTPγS assay
Format: biochemical
Condition context: tested in one of the above S1P1 assays (two GTPγS formats)
Method: The potencies and efficacies of the compounds of this invention for the S1P1 receptor can be determined by GTPγS assay performed on the human cloned receptor as described herein. Membrane preparation for S1P1 GTPγS assay All steps were performed at 4° C. Cells were homogenised within a glass Waring blender for 2 bursts of 15 secs in 200 mls of buffer (50 mM HEPES, 1 mM leupeptin, 25 μg/ml bacitracin, 1 mM EDTA, 1 mM PMSF, 2 μM pepstatin A). […]
pEC50: −log10 of the molar value. Structures can show the parent of a compound that is named as a salt.
Would you kindly list pEC50 for each of these molecules?

Measured pEC50, CC(C)Oc1ccc(-c2nc(-c3cccc4c3CCN(CCC(N)=O)CC4)no2)cc1C#N [Example 32] : ≥ 6.00

Input CCCOc1ncc(-c2nc(-c3ccc4c(c3)CCN(C(CO)CO)CC4)no2)cc1C#N [Example 109] . Output pEC50: ≥ 6.00

The recorded pEC50 for Cc1c(-c2noc(-c3ccc(OC(C)C)c(C#N)c3)n2)ccc2c1CCN(CC(=O)NC[C@H](C)O)C2 [Example 121, hydrochloride] is ≥ 8.00

Lookup result for Cc1c(-c2noc(-c3ccc(OC(C)C)c(C#N)c3)n2)ccc2c1CCN(CCCO)C2 [Example 8] ; measured pEC50: ≥ 7.00

// CC(C)Oc1ccc(-c2nc(-c3ccc4c(c3)CCN(CC(=O)NCCO)CC4)no2)cc1C#N [Example 111, hydrochloride] : pEC50 value = ≥ 7.00

Record summary for CC(C)Oc1ccc(-c2nc(-c3cccc4c3CCN(C(=O)[C@H](N)CO)C4)no2)cc1C#N [Example 90, hydrochloride] : reported pEC50 = ≥ 8.00

So, Cc1c(-c2nnc(-c3ccc(OC(C)C)c(C#N)c3)s2)ccc2c1CCN(CCC(N)=O)C2 [Example 10] ? Its pEC50 was ≥ 7.00

pEC50 reported for this molecule CC(C)Oc1ccc(-c2nc(-c3ccc4c(c3)CCN(CCCC(=O)N(C)C)CC4)no2)cc1C#N [Example 26] : ≥ 7.00

Input CC(C)Oc1ncc(-c2nc(-c3ccc4c(c3)CCN(C(=O)[C@@H](N)[C@@H](C)O)CC4)no2)cc1C#N [Example 77, hydrochloride] . Output pEC50: ≥ 6.00

// CCOc1ncc(-c2nc(-c3ccc4c(c3)CCN(C(=O)CN)CC4)no2)cc1C#N [Example 113] : pEC50 value = ≥ 6.00

Entry Cc1c(-c2noc(-c3ccc(OC(C)C)c(C#N)c3)n2)ccc2c1CCN(CCCC(N)=O)C2 [Example 4] , pEC50 reported as ≥ 7.00

Noted for CC(C)Oc1ccc(-c2nc(-c3ccc4c(c3)CCN(C[C@H](O)CO)CC4)no2)cc1C#N [Example 72] : its pEC50 reads ≥ 7.00

Sure, the documented pEC50 for N#Cc1cc(-c2nc(-c3ccc4c(c3)CCN(CC(O)CO)CC4)no2)ccc1N1CCC(F)C1 (centres unmarked) [Example 55] is ≥ 6.00

Record CCNC(=O)NCCN1CCc2ccc(-c3noc(-c4ccc(OC(C)C)c(C#N)c4)n3)cc2CC1 [Example 105] , field pEC50: ≥ 8.00

The reported value for CNCCCC(=O)N1CCc2ccc(-c3noc(-c4ccc(OC(C)C)c(C#N)c4)n3)cc2CC1 [Example 83] in terms of pEC50 is ≥ 6.00

Reported pEC50 for CC(C)Oc1ccc(-c2nc(-c3ccc4c(c3)CCN(C(=O)[C@](C)(N)CO)CC4)no2)cc1C#N [Example 84] was ≥ 6.00

Looking up N#Cc1cc(-c2nc(-c3ccc4c(c3)CCN(C(=O)CN)CC4)no2)ccc1OC(CF)CF [Example 54] , I found its pEC50 recorded as ≥ 7.00

Recorded pEC50 (molecule Cc1c(-c2nnc(-c3ccc(OC(C)C)c(C#N)c3)s2)ccc2c1CCN(CC(O)CO)C2 (centres unmarked) [Example 18] ): < 5.00

Briefly, pEC50 measured for CC(C)Nc1ncc(-c2nc(-c3ccc4c(c3)CCN(C(=O)CN)CC4)no2)cc1C#N [Example 112] : ≥ 6.00

The recorded pEC50 for CCOc1ccc(-c2nc(-c3ccc4c(c3)CCN(CC(O)CO)CC4)no2)cc1C#N (centres unmarked) [Example 70] is ≥ 7.00

Entry Cc1c(-c2noc(-c3ccc(OC(C)C)c(C#N)c3)n2)ccc2c1CCN(CC(=O)N1CC(O)C1)C2 [Example 123, hydrochloride] — recorded pEC50 = ≥ 7.00

pEC50 reported for this molecule CC(C)Oc1ccc(-c2nc(-c3ccc4c(c3)CCN(CCC(N)=O)CC4)no2)cc1C#N [Example 22] : ≥ 7.00

Measured pEC50 of CCOc1ccc(-c2nc(-c3ccc4c(c3)CCN(C(=O)CN)CC4)no2)cc1C#N [Example 61] : ≥ 7.00

* * *

Target entity: S1P1 receptor (S1P1 expressing RH7777 membranes) (Homo sapiens, UniProt P21453)
Construct: expressed in transfected cells; host or cells: RH7777 cells (membranes)
Sequence (P21453 whole entry): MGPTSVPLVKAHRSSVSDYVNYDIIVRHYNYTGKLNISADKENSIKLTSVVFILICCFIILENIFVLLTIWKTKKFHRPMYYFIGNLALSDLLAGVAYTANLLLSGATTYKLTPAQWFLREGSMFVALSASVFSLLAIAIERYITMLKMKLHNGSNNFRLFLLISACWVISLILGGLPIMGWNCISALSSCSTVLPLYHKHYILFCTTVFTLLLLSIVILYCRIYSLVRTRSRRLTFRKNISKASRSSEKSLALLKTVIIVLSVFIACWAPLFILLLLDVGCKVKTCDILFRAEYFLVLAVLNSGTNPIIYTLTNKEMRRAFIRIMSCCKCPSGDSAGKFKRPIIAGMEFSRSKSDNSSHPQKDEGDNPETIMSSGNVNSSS
Experimental details: S1P1 GTPγS assay
Assay type: biochemical
Condition context: tested in one of the above S1P1 assays (two GTPγS formats)
pEC50: −log10 of the molar value. Structures can show the parent of a compound that is named as a salt.
Give pEC50 for every item shown.

// compound CC(C)Oc1ccc(-c2nc(-c3ccc4c(c3)CCN(C(=O)[C@H](N)[C@@H](C)O)CC4)no2)cc1C#N , assay S1P1 receptor (S1P1 expressing RH7777 membranes) (Homo sapiens, UniProt P21453), pEC50 value: ≥ 7.00

Hey, S1P1 receptor (S1P1 expressing RH7777 membranes) (Homo sapiens, UniProt P21453) data for CCCNc1ncc(-c2nc(-c3ccc4c(c3C)CCN(C[C@H](O)CO)CC4)no2)cc1C#N : pEC50 came out at ≥ 6.00

The reported S1P1 receptor (S1P1 expressing RH7777 membranes) (Homo sapiens, UniProt P21453) pEC50 of CC(C)Oc1ccc(-c2nnc(-c3cccc4c3CCN(CCO)C4)s2)cc1C#N is ≥ 6.00

// compound Cc1c(-c2noc(-c3ccc(OC(C)C)c(C#N)c3)n2)ccc2c1CCN(CC(N)=O)C2 , assay S1P1 receptor (S1P1 expressing RH7777 membranes) (Homo sapiens, UniProt P21453), pEC50 value: ≥ 7.00

Measured pEC50 (S1P1 receptor (S1P1 expressing RH7777 membranes) (Homo sapiens, UniProt P21453)), entry Cc1c(-c2noc(-c3ccc(OC(C)C)c(C#N)c3)n2)ccc2c1CCN(C(=O)CN)C2 [Example 42, hydrochloride] : ≥ 7.00

Record N#Cc1cc(-c2nc(-c3ccc4c(c3)CCN(CC(O)CO)CC4)no2)ccc1OC(CF)CF (stereo not shown) ; system S1P1 receptor (S1P1 expressing RH7777 membranes) (Homo sapiens, UniProt P21453); pEC50 = ≥ 7.00

Record CC(C)Oc1ccc(-c2nnc(-c3ccc4c(c3)CCN(CCC(N)=O)C4)s2)cc1C#N has S1P1 receptor (S1P1 expressing RH7777 membranes) (Homo sapiens, UniProt P21453) pEC50 equal to ≥ 6.00

Given the compound COCCN1CCc2ccc(-c3nnc(-c4ccc(OC(C)C)c(C#N)c4)s3)cc2CC1 [Example 30, hydrochloride] and test system S1P1 receptor (S1P1 expressing RH7777 membranes) (Homo sapiens, UniProt P21453), the measured pEC50 is ≥ 6.00

Fill in: S1P1 receptor (S1P1 expressing RH7777 membranes) (Homo sapiens, UniProt P21453) pEC50 for CCCOc1ncc(-c2nc(-c3ccc4c(c3)CCN(C[C@H](O)CO)CC4)no2)cc1C#N = ≥ 6.00

Item CNC(=O)CCN1CCc2c(ccc(-c3noc(-c4ccc(OC(C)C)c(C#N)c4)n3)c2C)C1 ; assay system S1P1 receptor (S1P1 expressing RH7777 membranes) (Homo sapiens, UniProt P21453); pEC50 reported as ≥ 8.00
